# target_under_test: Adenosine receptor A2a (Homo sapiens, UniProt P29274)
# Sequence (P29274 whole entry): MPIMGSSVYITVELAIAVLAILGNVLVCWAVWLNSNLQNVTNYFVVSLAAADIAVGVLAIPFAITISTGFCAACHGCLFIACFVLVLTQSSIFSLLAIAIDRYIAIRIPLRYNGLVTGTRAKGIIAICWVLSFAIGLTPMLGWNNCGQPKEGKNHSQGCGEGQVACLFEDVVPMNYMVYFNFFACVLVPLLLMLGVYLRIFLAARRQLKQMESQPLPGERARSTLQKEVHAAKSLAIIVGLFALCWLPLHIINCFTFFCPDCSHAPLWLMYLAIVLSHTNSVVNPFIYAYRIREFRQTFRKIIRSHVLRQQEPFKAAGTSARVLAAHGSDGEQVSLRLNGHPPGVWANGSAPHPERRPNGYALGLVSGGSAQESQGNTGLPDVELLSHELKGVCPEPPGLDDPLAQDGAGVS
# test_description: Displacement of [3H]ZM241385 from human recombinant adenosine A2A receptor expressed in CHO cells at 10 uM by liquid scintillation counting
# Format: cell-based
In plain terms, low Activity, meaning strictly below 30%, gives TRUE, and everything else gives FALSE.

| smiles_input | target_under_test | discrete_label |
| --- | --- | --- |
| O=C(Nc1nc(-c2ccccc2)nc2c1nnn2Cc1ccccc1)c1ccccc1I | Adenosine receptor A2a (Homo sapiens, UniProt P29274) | FALSE |
| O=C(Nc1nc(-c2ccccc2)nc2c1nnn2Cc1ccccc1)c1ccc([N+](=O)[O-])cc1 | Adenosine receptor A2a (Homo sapiens, UniProt P29274) | TRUE |
| Nc1ccc(C(=O)Nc2nc(-c3ccccc3)nc3c2nnn3Cc2ccccc2)cc1 | Adenosine receptor A2a (Homo sapiens, UniProt P29274) | FALSE |
| Cc1ccc(C(=O)Nc2nc(-c3ccccc3)nc3c2nnn3Cc2ccccc2)cc1 | Adenosine receptor A2a (Homo sapiens, UniProt P29274) | TRUE |
| O=C(Nc1nc(-c2ccccc2)nc2c1nnn2Cc1ccccc1)c1cccc(F)c1 | Adenosine receptor A2a (Homo sapiens, UniProt P29274) | TRUE |
| CCOc1ccccc1C(=O)Nc1nc(-c2ccccc2)nc2c1nnn2Cc1ccccc1 | Adenosine receptor A2a (Homo sapiens, UniProt P29274) | FALSE |
| COc1cccc(C(=O)Nc2nc(-c3ccccc3)nc3c2nnn3Cc2ccccc2)c1 | Adenosine receptor A2a (Homo sapiens, UniProt P29274) | TRUE |
| O=C(Nc1nc(-c2ccccc2)nc2c1nnn2Cc1ccccc1)c1cccc([N+](=O)[O-])c1 | Adenosine receptor A2a (Homo sapiens, UniProt P29274) | TRUE |
| O=C(Nc1nc(-c2ccccc2)nc2c1nnn2Cc1ccccc1)c1ccc(C(F)(F)F)cc1 | Adenosine receptor A2a (Homo sapiens, UniProt P29274) | FALSE |
| O=C(Nc1nc(-c2ccccc2)nc2c1nnn2Cc1ccccc1)C1CCCCC1 | Adenosine receptor A2a (Homo sapiens, UniProt P29274) | FALSE |
| COc1ccccc1C(=O)Nc1nc(-c2ccccc2)nc2c1nnn2Cc1ccccc1 | Adenosine receptor A2a (Homo sapiens, UniProt P29274) | TRUE |
| O=C(Nc1nc(-c2ccccc2)nc2c1nnn2Cc1ccccc1)C1CCCC1 | Adenosine receptor A2a (Homo sapiens, UniProt P29274) | TRUE |
| O=C(Nc1nc(-c2ccccc2)nc2c1nnn2Cc1ccccc1)c1ccccc1Cl | Adenosine receptor A2a (Homo sapiens, UniProt P29274) | FALSE |

###

compounds and their reported Activity
# target_under_test: Adenosine receptor A2a (Homo sapiens)
# test_description: Displacement of [3H]ZM241385 from human recombinant adenosine A2A receptor expressed in CHO cells at 10 uM by liquid scintillation counting
# Format: cell-based
attribute_measured: Activity

| smiles_input | assay_result |
| --- | --- |
| COc1ccc(Cl)cc1C(=O)Nc1nc(-c2ccccc2)nc2c1nnn2Cc1ccccc1 | 31% |
| O=C(Nc1nc(-c2ccccc2)nc2c1nnn2Cc1ccccc1)c1ccccc1 | 36% |
| O=C(Nc1nc(-c2ccccc2)nc2c1nnn2Cc1ccccc1)c1ccccc1F | 35% |
| Nc1cccc(C(=O)Nc2nc(-c3ccccc3)nc3c2nnn3Cc2ccccc2)c1 | 4% |
| O=C(Nc1nc(-c2ccccc2)nc2c1nnn2Cc1ccccc1)c1cccc(Cl)c1 | 0% |
| COc1ccc(C(=O)Nc2nc(-c3ccccc3)nc3c2nnn3Cc2ccccc2)cc1 | 17% |
| O=C(Nc1nc(-c2ccccc2)nc2c1nnn2Cc1ccccc1)c1cccc(C(F)(F)F)c1 | 31% |
| O=C(Nc1nc(-c2ccccc2)nc2c1nnn2Cc1ccccc1)c1ccc(Cl)cc1[N+](=O)[O-] | 18% |
| O=C(Nc1nc(-c2ccccc2)nc2c1nnn2Cc1ccccc1)c1ccccc1C(F)(F)F | 27% |
